All figures here come from patent US20250145711A1.

target: T1, TRCW5 antigen (CD3δε-Fc-Avi) (biotinylated (site not stated)); experiment: ELISA after heat
T1 construct: also called recombinant CD3
T1 sequence (chain, as listed by the source mutant limits assumed): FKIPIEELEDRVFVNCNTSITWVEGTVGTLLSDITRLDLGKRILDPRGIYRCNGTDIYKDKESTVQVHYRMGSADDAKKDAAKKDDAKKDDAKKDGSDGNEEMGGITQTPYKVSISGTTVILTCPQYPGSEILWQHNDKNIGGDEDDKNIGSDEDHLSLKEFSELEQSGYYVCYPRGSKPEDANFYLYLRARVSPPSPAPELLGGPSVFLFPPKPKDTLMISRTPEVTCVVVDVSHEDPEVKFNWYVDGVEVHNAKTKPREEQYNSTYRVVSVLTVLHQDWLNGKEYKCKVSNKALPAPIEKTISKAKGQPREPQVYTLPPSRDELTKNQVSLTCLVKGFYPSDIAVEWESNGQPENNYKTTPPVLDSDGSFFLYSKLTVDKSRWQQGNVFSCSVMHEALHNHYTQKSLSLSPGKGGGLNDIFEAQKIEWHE
ENDPOINT_LABEL: % Retained 65° C. (%)
Give the number; % is assumed, so skip it.

Lookup: Let me know recorded % Retained 65° C. for CD3B2034 (scFv) scFv: QVQLVQSGAEVKKPGSSVKVSCKASGYTFTRSTMHWVKQAPGQGLEWMGYINPSSAYTNYNQKFQGRVTLTADKSTSTAYMELSSLRSEDTAVYYCASPQVHYDYNGFPYWGQGTLVTVSSGGSEGKSSGSGSESKSTGGSEIVLTQSPATLSASPGERVTLSCSASSSVSYMNWYQQKPGQSPRRWIYDSSKLASGVPARFSGSGSGRDYTLTISSLEPEDFAVYYCQQWSRNPPTFGGGTKVEIK , thanks.
Found: 38

Lookup: Let me know recorded % Retained 65° C. for CD3B2058 (scFv) scFv: QVQLVQSGAEVKKPGSSVKVSCKASGYTFTRSTMHWVKQAPGQGLEWIGYINPSSAYTNYAQKFQGRVTLTADKSTSTAYMELSSLRSEDTAVYYCASPQVHYDYNGFPYWGQGTLVTVSSGGSEGKSSGSGSESKSTGGSEIVLTQSPATLSASPGERVTLSCSASSSVSYMNWYQQKPGTSPRRWIYDSSKLASGVPARFSGSGSGRDYTLTISSLEPEDFAVYYCQQWSRNPPTFGGGTKVEIK , thanks.
Found: 20

Lookup: Let me know recorded % Retained 65° C. for CD3B1127 (scFv, also called Murine HL; murine Cris-7 scFv (HL)) scFv: QVQLQQSGAELARPGASVKMSCKASGYTFTRSTMHWVKQRPGQGLEWIGYINPSSAYTNYNQKFKDKATLTADKSSSTAYMQLSSLTSEDSAVYYCASPQVHYDYNGFPYWGQGTLVTVSAGGSEGKSSGSGSESKSTGGSQVVLTQSPAIMSAFPGEKVTMTCSASSSVSYMNWYQQKSGTSPKRWIYDSSKLASGVPARFSGSGSGTSYSLTISSMETEDAATYYCQQWSRNPPTFGGGTKLQIT , thanks.
Found: 1
